test system: ATP; assay: switch fluorescence ratio, 500 uM ATP over buffer (Cy3 cluster intensity, sum of 5 cycles each) (fold (ratio)); higher = stronger signal-on switching upon ATP binding; sequences stand for … in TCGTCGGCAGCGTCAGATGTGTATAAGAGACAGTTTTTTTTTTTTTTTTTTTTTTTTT…TC; settings: aptamer strand: ATP DNA aptamer (quencher-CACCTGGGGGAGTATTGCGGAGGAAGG + anchor), 100 nM annealed; ATP concentration: 500 uM;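 also: ATP exposure 15 min at 22 °C before imaging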
Consider the following sequences and their measured switch fluorescence ratio readings.

>  <SEQUENCE_CONTENT>
GGAAATGGGG

>  <TARGET_UNDER_TEST>
ATP;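 also: ATP exposure 15 min at 22 °C before imaging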

>  <switch fluorescence ratio>
0.987

$$$$
>  <SEQUENCE_CONTENT>
ACGCAGGACA

>  <TARGET_UNDER_TEST>
ATP;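 also: ATP exposure 15 min at 22 °C before imaging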

>  <switch fluorescence ratio>
1.35

$$$$
>  <SEQUENCE_CONTENT>
CAAGAGTATT

>  <TARGET_UNDER_TEST>
ATP;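 also: ATP exposure 15 min at 22 °C before imaging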

>  <switch fluorescence ratio>
0.995

$$$$
>  <SEQUENCE_CONTENT>
TTGTAGGGTT

>  <TARGET_UNDER_TEST>
ATP;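 also: ATP exposure 15 min at 22 °C before imaging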

>  <switch fluorescence ratio>
1.02

$$$$
>  <SEQUENCE_CONTENT>
TTGGAGGTCG

>  <TARGET_UNDER_TEST>
ATP;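 also: ATP exposure 15 min at 22 °C before imaging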

>  <switch fluorescence ratio>
1.03

$$$$
>  <SEQUENCE_CONTENT>
GTTGTAGTTG

>  <TARGET_UNDER_TEST>
ATP;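 also: ATP exposure 15 min at 22 °C before imaging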

>  <switch fluorescence ratio>
0.984

$$$$
>  <SEQUENCE_CONTENT>
TCGGTCAGTT

>  <TARGET_UNDER_TEST>
ATP;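 also: ATP exposure 15 min at 22 °C before imaging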

>  <switch fluorescence ratio>
0.971

$$$$
>  <SEQUENCE_CONTENT>
TGCGGGGTGC

>  <TARGET_UNDER_TEST>
ATP;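 also: ATP exposure 15 min at 22 °C before imaging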

>  <switch fluorescence ratio>
1.02

$$$$
>  <SEQUENCE_CONTENT>
GCCGAAGGGT

>  <TARGET_UNDER_TEST>
ATP;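 also: ATP exposure 15 min at 22 °C before imaging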

>  <switch fluorescence ratio>
1.02

$$$$
>  <SEQUENCE_CONTENT>
TTTTATATAA

>  <TARGET_UNDER_TEST>
ATP;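 also: ATP exposure 15 min at 22 °C before imaging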

>  <switch fluorescence ratio>
1.02

$$$$
